test system: E. coli BL21; assay: MIC against Gram-negative bacteria: E. coli BL21; type: cell-based; conditions: E. coli BL21; 10 h cultivation at 37° C.; 5×10^5 CFU/mL
reported-property: MIC (µg/mL)
Just the number in µg/mL, nothing appended.

PRT413 (DVNECITGSHSCRLGESCINTVGSFRCQRDSSCGTGYELTEDNSCK; listed as Homo sapiens) = 12.5
PRT302 (DIDECVEEPEICALGTCSNTEGSFKCLCPEGFSLSSSGRRCQ; listed as Homo sapiens) = 25
PRT398 (DDNECHAQPDLCVNGRCVNTAGSFRCDCDEGFQPSPTLTECH; listed as Homo sapiens) = 12.5
PRT403 (DNDECSAQPGPCGAHGHCHNTPGSFRCECHQGFTLVSSGHGCE; listed as Homo sapiens) = 25
PRT432 (DVDECATDSHQCNPTQICINTEGGYTCSCTDGYWLLEGQCL; listed as Homo sapiens) = 50
PRT399 (DVDECRMLAHLCAHGECINSLGSFRCHCQAGYTPDATATTCL; listed as Homo sapiens) = 50

(Q) Fill in: MIC of PRT419 (DIDECALPTGGHICSYRCINIPGSFQCSCPSSGYRLAPNGRNCQ; listed as Homo sapiens) is ___
(A) 12.5

====

system: Aeromonas hydrophila; test: MIC against Gram-negative bacteria: Aeromonas hydrophila; type: cell-based; settings: 10 h cultivation at 37° C., 5×10^5 CFU/mL, two-fold serial dilution
reported-property: MIC A. hydrophila (µg/mL)
Just the number in µg/mL, nothing appended.

PRT1174 (DLNYCGTHQPCLNGGTCSNTGPDKYQCSCPEGYSGPNCE; listed as Homo sapiens) = 50
PRT1049 (WGENCAQTCQCHHGGTCHPQDGSCICPLGWTGHHCL; listed as Homo sapiens) = 12.5
PRT1175 (AEHACLSDPCHNRGSCKETSLGFECECSPGWTGPTCS; listed as Homo sapiens) = 50

(Q) Fill in: MIC A. hydrophila of PRT1141 (EINECSSEPCKNNGTCVDLTNRFFCNCEPEYHGPFCE; listed as Homo sapiens) is ___
(A) 12.5

(Q) Try this substance too: PRT1098 (DIDNCQSHQCANGATCISHTNGYSCLCFGNFTGKFCR; listed as Homo sapiens)
(A) 25

(Q) Try this substance too: PRT1185 (REFQCDAYTCSNGGTCYDSGDTFRCACPPGWKGSTCA; listed as Homo sapiens)
(A) 50

(Q) Try this substance too: PRT1109 (EPRGCATQPCHHGALCVPQGPDPTGFRCYCVPGFQGPRCE; listed as Homo sapiens)
(A) 50

(Q) Try this substance too: PRT1047 (SNTCTCKNGGTCLPENGNCVCAPGFRGPSCQ; listed as Homo sapiens)
(A) 12.5

(Q) Try this substance too: PRT1056 (DQDDCAPVGCSMYARCISEGEDATCQCLKGFAGDGKLCS; listed as Homo sapiens)
(A) 12.5

====

tested on: Citrobacter diversus; test: MIC against Gram-negative bacteria: Citrobacter diversus; assay type: cell-based; conditions: Citrobacter diversus; 5×10^5 CFU/mL; 10 h cultivation at 37° C.
reported-property: MIC against C. diversus (µg/mL)
Just the number in µg/mL, nothing appended.

Example entries begin here.
PRT1450 (VPSNCDCLNGGTCVSNKYFSNIHWCNCPKKFGGQHCE; listed as Homo sapiens) = 25
PRT1405 (PTTQCIDPQCGGRGICIMGSCACNSGYKGESCE; listed as Homo sapiens) = 12.5
PRT1434 (DVDECKYHPCYPGVHCINLSPGFRCDACPVGFTGPMVQ; listed as Homo sapiens) = 25
PRT1383 (GTRSCPWDCGEGGRCVDGRCVCWPGYTGEDC; listed as Homo sapiens) = 25
PRT1466 (CSCHTTGAVNHICNSLTGQCVCQDASIAGQRCDQCKDHYFGFDPQTGRCQP; listed as Homo sapiens) = 12.5
PRT1399 (ARVQCPDQCSGHGTYLPDTGLCSCDPNWMGPDCS; listed as Homo sapiens) = 25
PRT1475 (DINECKDPSNINGGCSQICDNTPGSYHCSCKNGFVMLSNKKDCK; listed as Homo sapiens) = 25
PRT1367 (YPACPENCSGHGECVRGVCQCHEDFMSEDCS; listed as Homo sapiens) = 12.5
PRT1354 (RDRQCPRDCSNRGLCVDGQCVCEDGFTGPDCA; listed as Homo sapiens) = 25
PRT1472 (LEHPCASLCCGHGTCIDGIGSFSCDCRSGWEGRFCQ; listed as Homo sapiens) = 12.5

(Q) Fill in the recorded MIC against C. diversus for this substance, with Citrobacter diversus as test system: PRT1425 (DIDECENGGFCSGVCHNLPGTFECICGPDSALARHIGTDCD; listed as Homo sapiens)
(A) 50

(Q) Try this substance too: PRT1404 (RAACPVLCSGNGQYSKGRCLCFSGWKGTECD; listed as Homo sapiens)
(A) 50

(Q) Try this substance too: PRT1396 (LGADCAKAACPVLCSGNGQYSKGTCQCYSGWKGAECD; listed as Homo sapiens)
(A) 12.5
